From: patent US20240116985A1

# IC50 annotations
- assay.system: full-length beta-Catenin (Uniprot ID P35222) (Homo sapiens)
- Construct: 10 nM full-length beta-Catenin (Uniprot ID P35222)
- Sequence (P35222 1-781): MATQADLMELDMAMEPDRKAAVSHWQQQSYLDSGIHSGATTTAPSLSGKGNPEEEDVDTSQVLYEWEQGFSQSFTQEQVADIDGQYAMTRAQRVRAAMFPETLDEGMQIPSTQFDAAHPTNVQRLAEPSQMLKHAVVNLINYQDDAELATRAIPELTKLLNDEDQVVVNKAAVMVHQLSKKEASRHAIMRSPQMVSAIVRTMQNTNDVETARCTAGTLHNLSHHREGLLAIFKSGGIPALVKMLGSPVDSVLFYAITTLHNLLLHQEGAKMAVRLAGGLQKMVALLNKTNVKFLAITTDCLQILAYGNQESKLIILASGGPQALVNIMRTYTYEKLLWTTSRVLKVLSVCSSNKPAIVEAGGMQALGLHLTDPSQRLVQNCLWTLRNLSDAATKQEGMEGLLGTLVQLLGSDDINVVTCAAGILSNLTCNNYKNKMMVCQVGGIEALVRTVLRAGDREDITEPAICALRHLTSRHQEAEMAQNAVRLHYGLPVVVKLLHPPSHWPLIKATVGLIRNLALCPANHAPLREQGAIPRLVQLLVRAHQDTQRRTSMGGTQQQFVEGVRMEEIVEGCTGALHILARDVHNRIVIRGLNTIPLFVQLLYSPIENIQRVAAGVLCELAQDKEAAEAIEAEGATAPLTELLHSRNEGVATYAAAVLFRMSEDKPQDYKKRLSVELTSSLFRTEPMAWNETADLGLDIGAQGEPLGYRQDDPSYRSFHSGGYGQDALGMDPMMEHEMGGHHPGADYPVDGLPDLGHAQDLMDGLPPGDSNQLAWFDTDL
- procedure.details: Fluorescence polarization IC50 (beta-catenin / 5FAM-TCF4 10-53 competition)
- Format: binding
- protocol.conditions: fluorescence polarization; read-out: beta-Catenin FP IC50
Kindly provide the numeric value in nM only, without the unit symbol.

[[record]]
compound = "CC(=O)N1CCC[C@]12CC=CCCCC1(CCCC=CCCCCCC[C@@](C)(C(=O)N[C@@H](Cc3ccccc3)C(=O)N[C@@H](Cc3csc4ccccc34)C(=O)N[C@H](CCC(N)=O)C(N)=O)NC(=O)[C@H](CCC(N)=O)NC(=O)[C@H](Cc3ccccc3)NC(=O)[C@H](C)NC(=O)[C@H](C)NC(=O)[C@H](CCC(=O)O)NC(=O)[C@H](CC(=O)O)NC1=O)NC(=O)[C@H](C)NC(=O)[C@H](CC(=O)O)NC2=O (some centres unmarked)"
assay_system = "full-length beta-Catenin (Uniprot ID P35222) (Homo sapiens)"
units_text = "nM"
observed = 82

[[record]]
compound = "CC(=O)N1CCC[C@]12CC=CCCCC1(CCCC=CCCCCCC[C@@](C)(C(=O)N[C@@H](Cc3ccccc3)C(=O)N[C@@H](Cc3csc4ccccc34)C(=O)N[C@@H](Cc3c[nH]cn3)C(N)=O)NC(=O)[C@H]([C@@H](C)O)NC(=O)[C@H](Cc3ccccc3)NC(=O)[C@H](C)NC(=O)[C@H](C)NC(=O)[C@H](CCC(=O)O)NC(=O)[C@H](CC(=O)O)NC1=O)NC(=O)[C@H](CC(C)C)NC(=O)[C@H](CC(=O)O)NC2=O (some centres unmarked) [I-617]"
assay_system = "full-length beta-Catenin (Uniprot ID P35222) (Homo sapiens)"
units_text = "nM"
observed = 253

[[record]]
compound = "CC(=O)NCCCC[C@@H]1NC(=O)[C@H](Cc2ccccc2)NC(=O)[C@H](C)NC(=O)[C@H](C)NC(=O)[C@H](Cc2cccc(C(=O)O)c2)NC(=O)[C@H](CC(=O)O)NC(=O)C2(CCCC=CCCCOC(=O)N3CC[C@@](C(=O)N[C@@H](Cc4ccccc4C(F)(F)F)C(=O)N[C@@H](Cc4csc5ccccc45)C(=O)N[C@@H](CCC(=O)N4CCOCC4)C(N)=O)(C3)NC1=O)CCCC=CC[C@]1(CCCN1C(C)=O)C(=O)N[C@@H](CC(=O)O)C(=O)N[C@@H](CC(C)(C)C)C(=O)N2 (some centres unmarked) [I-2549]"
assay_system = "full-length beta-Catenin (Uniprot ID P35222) (Homo sapiens)"
units_text = "nM"
observed = 13

[[record]]
compound = "CC[C@H](C)[C@@H]1NC(=O)[C@H](CC(=O)O)NC(=O)[C@]2(CC=CCCCC3(CCCC=CCCCCCC[C@@](C)(C(=O)N[C@@H](Cc4ccccc4)C(=O)N[C@@H](Cc4csc5ccccc45)C(=O)N[C@@H](CCC(N)=O)C(N)=O)NC(=O)[C@H](CCC(N)=O)NC(=O)[C@H](Cc4ccc(-c5ccccc5)cc4)NC(=O)[C@H](C)NC(=O)[C@H](C)NC(=O)[C@H](CCC(=O)O)NC(=O)[C@H](CC(=O)O)NC3=O)NC1=O)CCCN2C(C)=O (some centres unmarked)"
assay_system = "full-length beta-Catenin (Uniprot ID P35222) (Homo sapiens)"
units_text = "nM"
observed = 3830


Consider now this further compound.
**Query** Entry CC(=O)N1CCC[C@]12CC=CCCCC1(CCCC=CCCCOC(=O)N3CC[C@@](C(=O)N[C@@H](Cc4ccccc4)C(=O)N[C@@H](Cc4csc5ccccc45)C(=O)N[C@@H](CC(=O)N4CCOCC4)C(N)=O)(C3)NC(=O)[C@H](CC(C)C)NC(=O)[C@H](Cc3ccccc3)NC(=O)[C@H](C)NC(=O)[C@H](CCO)NC(=O)[C@H](CCC(N)=O)NC(=O)[C@H](CC(=O)O)NC1=O)NC(=O)[C@H](CC1CCCCC1)NC(=O)[C@H](CC(N)=O)NC2=O (some centres unmarked) has what IC50?
**Result** 449
